target: Myeloperoxidase (Homo sapiens, UniProt P05164); test: Irreversible inhibition of MPO in LPS-stimulated human whole blood after 4 hrs by Amplex Red/H2O2-based fluorescence plate reader analysis
Sequence (P05164 165-273 limits assumed): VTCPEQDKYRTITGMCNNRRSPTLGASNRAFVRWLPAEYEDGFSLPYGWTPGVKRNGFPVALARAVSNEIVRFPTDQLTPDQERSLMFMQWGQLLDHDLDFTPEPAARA
Sequence (P05164 279-745 limits assumed): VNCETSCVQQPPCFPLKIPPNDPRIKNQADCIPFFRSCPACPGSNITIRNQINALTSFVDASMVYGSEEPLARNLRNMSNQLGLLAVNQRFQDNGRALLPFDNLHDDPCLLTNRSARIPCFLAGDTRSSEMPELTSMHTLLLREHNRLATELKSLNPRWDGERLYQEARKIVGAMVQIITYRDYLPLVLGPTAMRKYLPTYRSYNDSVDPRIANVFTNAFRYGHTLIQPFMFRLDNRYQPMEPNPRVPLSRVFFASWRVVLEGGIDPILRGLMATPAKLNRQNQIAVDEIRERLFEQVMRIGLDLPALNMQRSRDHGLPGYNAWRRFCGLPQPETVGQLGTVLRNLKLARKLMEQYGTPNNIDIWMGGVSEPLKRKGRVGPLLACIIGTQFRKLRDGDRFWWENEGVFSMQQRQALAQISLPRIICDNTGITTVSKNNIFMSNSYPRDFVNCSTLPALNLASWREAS
property.name: pIC50
Answers are plain numbers, as −log10 of the molar value.

Sample records with pIC50:
COc1ccc(-c2cc(=O)[nH]c(=S)n2CCO)c(OC)c1; 5.70
CCCc1cc(=O)[nH]c(=S)[nH]1 [PROPYLTHIOURACIL]; 5.24
COc1ccc(-c2cc(=O)[nH]c(=S)n2CC(N)=O)c(OC)c1; 5.59
COc1ccccc1-c1cc(=O)[nH]c(=S)[nH]1; 5.21
COc1ccc(-c2cc(=O)[nH]c(=S)n2CCOC(C)C)c(OC)c1; 4.96

Respectfully, I request pIC50 for each entry included below.
1. COc1ccc(OC)c(-c2cc(=O)[nH]c(=S)n2CC(N)=O)c1
2. COc1ccc(-c2cc(=O)[nH]c(=S)n2CCN)c(OC)c1

[5.82, 6.30]

---

assay: Elimination half life in Beagle dog at 1 mg/kg, iv and 3 or 5 mg/kg, po; assay type: ADME, organism-based, Canis lupus familiaris; details: in vivo, read-out: beta t1/2 (converted)
Give measured half-life for each item. Keep answers brief.
Write the figure, then the unit, nothing else.

Look over these answered cases.
COc1ccc(-c2cc(=O)[nH]c(=S)n2CC(N)=O)c(OC)c1; 3.4 h
COc1ccc(Cl)cc1-c1cc(=O)[nH]c(=S)n1CC(N)=O; 2.2 h
COc1ccc(-c2cc(=O)[nH]c(=S)n2CCO)c(OC)c1; 5.3 h
COc1ccc(-c2cc(=O)[nH]c(=S)n2CC(=O)NCCN)c(OC)c1; 2.59 h
COc1ccc(-c2cc(=O)[nH]c(=S)n2CCN)c(OC)c1; 5.7 h

Note: attention shifts to another entry.
Please list half-life recorded for the compound COc1ccc(OC)c(-c2cc(=O)[nH]c(=S)n2CC(N)=O)c1 2.8 h

---

experiment: Volume of distribution at steady state in cynomolgus monkey at 1 mg/kg, iv and 3 or 5 mg/kg, po; format: ADME, organism-based, Macaca fascicularis; details: in vivo, read-out: Vdss
property.name: Vd (L/kg)
Answers are plain numbers, in L/kg.

Look up and report measured Vd for this entry: COc1ccc(Cl)cc1-c1cc(=O)[nH]c(=S)n1CC(N)=O [PF-06282999] 1.09

---

tested on: Liver microsome; assay: Intrinsic apparent clearance in human liver microsomes; format: ADME
Exercise: state measured CLH(app) for each of the compounds provided.

For orientation, consider the following solved cases.
COc1ccc(-c2cc(=O)[nH]c(=S)n2CCO)c(OC)c1; < 8 µL/min/mg
COc1ccc(Cl)cc1-c1cc(=O)[nH]c(=S)n1CC(N)=O; < 8 µL/min/mg
COc1ccc(-c2cc(=O)[nH]c(=S)n2CCOC(C)C)c(OC)c1; 11 µL/min/mg
COc1ccc(-c2cc(=O)[nH]c(=S)n2CC(=O)NCCN)c(OC)c1; < 8 µL/min/mg

State the recorded CLH(app) for every item in the following list.
1. COc1ccc(-c2cc(=O)[nH]c(=S)n2CCN)c(OC)c1
2. COc1ccc(OC)c(-c2cc(=O)[nH]c(=S)n2CC(N)=O)c1
3. COc1ccc(-c2cc(=O)[nH]c(=S)n2CC(N)=O)c(OC)c1

["8.8 µL/min/mg", "< 8 µL/min/mg", "< 8 µL/min/mg"]
